- study system: Paired box protein Pax-8 (Homo sapiens)
- Sequence (Q06710 whole entry): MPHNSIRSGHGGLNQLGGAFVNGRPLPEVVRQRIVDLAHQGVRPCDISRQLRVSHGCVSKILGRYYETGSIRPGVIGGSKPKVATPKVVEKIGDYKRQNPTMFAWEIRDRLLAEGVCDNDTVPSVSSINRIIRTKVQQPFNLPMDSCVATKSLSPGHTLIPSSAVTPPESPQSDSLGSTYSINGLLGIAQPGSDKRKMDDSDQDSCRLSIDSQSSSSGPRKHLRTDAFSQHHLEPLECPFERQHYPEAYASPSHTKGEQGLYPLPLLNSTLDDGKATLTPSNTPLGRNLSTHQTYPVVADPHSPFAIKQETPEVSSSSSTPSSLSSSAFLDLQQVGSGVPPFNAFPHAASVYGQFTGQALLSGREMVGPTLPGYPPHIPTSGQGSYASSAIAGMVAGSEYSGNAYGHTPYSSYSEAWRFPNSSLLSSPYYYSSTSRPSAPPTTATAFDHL
- test method notes: inhibitors of PAX8-driven TPO luciferase reporter, dose response, RMG-I cells, cherry-pick (AID 687027);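 also: luciferase reporter driven by Pax8 target thyroperoxidase promoter measured by SteadyGlo luminescence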
- Format: functional, cell-based
The source made the active and inactive calls.
The following compounds are shown together with reported AC50 values.

Here are 5 compounds together with their reported answers.
O=C(NC1CCCCC1)C(c1cccnc1)N(C(=O)CCl)c1ccccc1Cl (configuration not stated) :: 6.05 µM (active)
O=C(C1CCCC1)N1CC[C@@H]2[C@H](CO)Nc3ccc(C4=CCCCC4)cc3[C@@H]21 :: 12.7 µM (active)
O=C(O)c1ccc(N/N=C/c2ccc3c(c2)OCO3)cc1 :: 3.04 µM (active)
C=C1C(=O)[C@@]23[C@H](O)C[C@@H]4C(C)(C)CC[C@H](O)[C@]4(C)[C@@H]2C[C@H](O)[C@@H]1[C@H]3O :: 3.37 µM (active)
COc1ccccc1NC(=O)N1CCCCN2[C@H](CO)[C@H](c3ccc(-c4cccc(C)c4)cc3)[C@H]2C1 :: 14.6 µM (active)

Enquiry: Return reported AC50. Input compound: `COc1ccc(S(=O)(=O)Nc2ccc3c(c2)CC(=O)N([C@@H](C)CO)C[C@@H](C)[C@H](CN(C)Cc2ccc(-c4ccccc4)cc2)O3)cc1`
Return: 6.29 µM (active)

Enquiry: Return reported AC50. Input compound: `CC(C)(C)OC(=O)NCCCC[C@H](NC(=O)c1[nH]cnc1C(=O)N[C@@H](Cc1ccccc1)C(=O)OC(C)(C)C)C(=O)OC(C)(C)C`
Return: 7.6 µM (active)

###

- study system: UniProt:P41145
- Sequence (P41145 whole entry): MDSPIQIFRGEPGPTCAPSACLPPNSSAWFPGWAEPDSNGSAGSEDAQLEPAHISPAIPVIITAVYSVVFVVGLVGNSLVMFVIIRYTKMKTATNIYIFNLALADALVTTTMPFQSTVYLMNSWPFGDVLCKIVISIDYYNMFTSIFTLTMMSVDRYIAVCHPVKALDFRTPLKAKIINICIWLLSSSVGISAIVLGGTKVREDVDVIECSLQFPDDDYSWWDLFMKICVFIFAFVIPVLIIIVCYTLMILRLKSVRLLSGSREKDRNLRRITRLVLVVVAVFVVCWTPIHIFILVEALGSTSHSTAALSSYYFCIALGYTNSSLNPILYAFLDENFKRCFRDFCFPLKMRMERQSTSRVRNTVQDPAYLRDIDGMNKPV
- Assay type: functional
readout type: pIC50
Note on pIC50: it is the negative log10 of concentration, concentration in mol/L.

Enquiry: Return reported pIC50. Input compound: CCOc1ccccc1C(=O)NC1CC2CCCC(C1)N2Cc1ccc(C)cc1 (stereo unspecified)
Return: 4.66

###

- study system: Large T antigen (Simian virus 40);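 also: Confirmatory-stage PubChem screen for compounds that inhibit SV40 T antigen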
- Sequence (P03070 whole entry): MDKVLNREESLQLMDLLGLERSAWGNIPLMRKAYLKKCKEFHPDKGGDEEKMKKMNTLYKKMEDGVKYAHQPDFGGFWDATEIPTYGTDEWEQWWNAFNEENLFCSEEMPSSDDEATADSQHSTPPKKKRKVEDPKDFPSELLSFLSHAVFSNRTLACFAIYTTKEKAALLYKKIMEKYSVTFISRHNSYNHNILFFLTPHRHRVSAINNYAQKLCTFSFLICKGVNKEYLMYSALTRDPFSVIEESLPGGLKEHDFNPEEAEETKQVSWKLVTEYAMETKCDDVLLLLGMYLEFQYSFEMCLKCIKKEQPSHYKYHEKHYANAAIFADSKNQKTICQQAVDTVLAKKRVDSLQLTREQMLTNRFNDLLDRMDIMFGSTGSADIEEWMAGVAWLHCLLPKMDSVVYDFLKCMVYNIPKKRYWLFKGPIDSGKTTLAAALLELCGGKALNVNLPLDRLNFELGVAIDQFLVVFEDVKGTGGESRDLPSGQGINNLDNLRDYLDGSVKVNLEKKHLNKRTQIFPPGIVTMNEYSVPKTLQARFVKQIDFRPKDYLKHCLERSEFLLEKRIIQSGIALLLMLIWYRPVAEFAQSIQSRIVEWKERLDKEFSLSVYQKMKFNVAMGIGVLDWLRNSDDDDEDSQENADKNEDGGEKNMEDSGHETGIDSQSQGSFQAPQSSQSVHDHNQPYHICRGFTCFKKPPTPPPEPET
- Type: functional, Betapolyomavirus macacae
Activity calls are given as the source filed them.
readout type: IC50

Here are 5 compounds together with their reported answers.
O=C1NN(c2ccc(Cl)cc2)C(=O)/C1=C\c1ccc(-c2cccc(C(=O)O)c2)o1 :: 27.1 µM (active)
N#Cc1c(O)nc(SCC(=O)N2c3ccccc3Sc3ccccc32)nc1-c1ccccc1 :: 52.7 µM (active)
CCOc1cc(/C=N/NC(=O)Nc2ccccc2)ccc1O :: > 100 µM (active)
CN(C)c1ccc(NC(=O)CSc2nnc(-c3cnccn3)n2C)cc1 :: 17.8 µM (active)
Cc1ccc(C)c(S(=O)(=O)Nc2ccc(O)cc2)c1 :: 11.1 µM (active)

Enquiry: Return reported IC50. Input compound: `O=C(O)c1ccc(Nc2cc(Cl)c3nonc3c2[N+](=O)[O-])cc1`
Return: 76.6 µM (active)

Enquiry: Return reported IC50. Input compound: `O=C1c2ccccc2C(=O)N1CCc1c[nH]c2ccc(O)cc12`
Return: 59.7 µM (active)

###

- study system: Mannose-6-phosphate isomerase (Homo sapiens)
- Sequence (P34949 whole entry): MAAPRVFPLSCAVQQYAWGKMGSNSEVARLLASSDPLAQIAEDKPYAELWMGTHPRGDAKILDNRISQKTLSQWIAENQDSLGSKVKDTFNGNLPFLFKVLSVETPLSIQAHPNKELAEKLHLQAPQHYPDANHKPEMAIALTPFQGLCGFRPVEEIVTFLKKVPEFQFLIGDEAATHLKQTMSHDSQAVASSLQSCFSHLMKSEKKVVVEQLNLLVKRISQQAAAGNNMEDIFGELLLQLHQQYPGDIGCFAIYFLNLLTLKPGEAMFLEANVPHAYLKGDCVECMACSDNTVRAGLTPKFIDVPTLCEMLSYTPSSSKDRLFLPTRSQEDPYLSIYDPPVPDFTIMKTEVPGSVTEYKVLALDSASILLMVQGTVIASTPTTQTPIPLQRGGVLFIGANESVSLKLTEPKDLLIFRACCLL
- test method notes: inhibitors of human PMI, primary screen, biochemical, fluorescence intensity, coupled assay (AID 1209)
Activity calls are given as the source filed them.
readout type: IC50

Here are 2 compounds together with their reported answers.
N=C1S/C(=C\c2ccc(-c3ccccc3C(=O)O)o2)C(=O)N1c1ccc2c(c1)OCO2 :: 11.1 µM (active)
COc1cc(NC(C)=O)c2ncccc2c1[N+](=O)[O-] :: > 50 µM (not active)

Enquiry: Return reported IC50. Input compound: `O=C(O)CCn1cc(C=C2C(=O)NC(=S)NC2=O)c(-c2cccc(Br)c2)n1`
Return: 11.7 µM (active)

Enquiry: Return reported IC50. Input compound: `CC1=Nc2nc3c(c4c(C#N)c(N5CCCCC5)nc(c24)N1)CC(=O)N3c1ccc(C(C)C)cc1.CN(C)C=O`
Return: > 50 µM (not active)

###

- study system: Ubiquitin-conjugating enzyme E2 N (Homo sapiens, UniProt P61088);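 also: Dose-response confirmation in a TR-FRET assay detecting UBC13-driven polyubiquitin chain formation, inhibition measured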
- Sequence (P61088 whole entry): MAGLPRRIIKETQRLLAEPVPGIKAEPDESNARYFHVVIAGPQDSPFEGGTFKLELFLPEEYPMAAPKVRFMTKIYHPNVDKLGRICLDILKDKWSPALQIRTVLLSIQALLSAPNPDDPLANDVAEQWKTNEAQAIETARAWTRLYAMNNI
- Assay type: functional
Active and inactive are the calls of the source.
Lab note: assign the record to one of active, inactive

Past entries and their recorded results:
CC(C)C[C@H](N)c1cn([C@@H](Cc2cc3ccccc3[nH]2)C(=O)N2CCNCC2)nn1 :: active
NC(S)=Nc1nc2ccccc2nc1O :: inactive
CC(C)[C@H](CN1CCC[C@H]1CN1C(N)=NC[C@H]1C(C)C)N1C[C@@H](Cc2ccccc2)N(CCCC2CCCC2)C1=N :: inactive
COc1ccc(C)c2sc(N(CCCN(C)C)C(=O)c3ccc(S(=O)(=O)N(C)C)cc3)nc12 :: inactive
COC(=O)c1ccccc1S(=O)(=O)N1CCC(C(=O)N2CCC2)CC1 :: inactive

Enquiry: Per the records of this test, what outcome belongs to `CC[C@@H](C)[C@@H]1CN([C@@H](C)CN2CCC[C@H]2CN2C(N)=NC[C@@H]2Cc2ccccc2)C(=N)N1CCc1ccc(Cl)c(Cl)c1` ?
Return: inactive

Enquiry: Per the records of this test, what outcome belongs to Cc1ccccc1OCc1n(CC(=O)OC2CC(C)CCC2C(C)C)c2ccccc2[n+]1C.[Cl-] (stereo not drawn) ?
Return: inactive

Enquiry: Per the records of this test, what outcome belongs to CC(C(=O)NC1CCCC1)N(C(=O)c1snc(C(N)=O)c1N)c1ccc2c(c1)OCCO2 (stereo not drawn) ?
Return: inactive

###

- study system: Cytochrome P450 3A4 (Homo sapiens, UniProt P08684)
- Sequence (P08684 whole entry): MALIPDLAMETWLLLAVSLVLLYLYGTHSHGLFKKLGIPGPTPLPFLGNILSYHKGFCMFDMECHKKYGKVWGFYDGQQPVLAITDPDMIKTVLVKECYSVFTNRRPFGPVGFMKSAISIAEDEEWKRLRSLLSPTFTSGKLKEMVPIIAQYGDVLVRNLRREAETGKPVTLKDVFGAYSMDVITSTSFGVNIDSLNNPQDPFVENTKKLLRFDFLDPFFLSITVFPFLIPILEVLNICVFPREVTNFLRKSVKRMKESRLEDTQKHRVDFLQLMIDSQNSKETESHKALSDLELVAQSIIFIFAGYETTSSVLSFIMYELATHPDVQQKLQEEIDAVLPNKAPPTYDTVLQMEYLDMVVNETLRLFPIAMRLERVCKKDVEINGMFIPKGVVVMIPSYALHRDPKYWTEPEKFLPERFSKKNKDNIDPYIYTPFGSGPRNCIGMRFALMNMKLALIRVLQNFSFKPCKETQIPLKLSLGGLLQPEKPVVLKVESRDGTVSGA
The following molecules are shown together with reported AC50 values.

Here are 4 molecules together with their reported answers.
CCOc1ccc(N2C(=O)/C(=C/c3cc(OC)c(OC)c(OC)c3)N(CC(=O)OC)C2=S)cc1 :: 15.8 µM (inconclusive)
COc1ccccc1CN1C(=O)c2ccncc2C1=O :: 11.2 µM (inconclusive)
CC[C@@](O)(C(=O)O)c1cc2n(c(=O)c1CO)Cc1cc3ccccc3nc1-2 :: 3.16 µM (inconclusive)
O=c1c(-c2cccc(F)c2)nc2cncnc2n1-c1ccccc1 :: 20 µM (inconclusive)

API: the following record is the query input.
Enquiry: GET AC50 where system = Cytochrome P450 3A4 (Homo sapiens, UniProt P08684) and item = `COCCNc1nc(-c2ccccc2C)nc2ccccc12`;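 also: CYP3A4 tested as one member of a cytochrome P450 panel screen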
Return: 12.6 µM (inconclusive)

###

- study system: Aminopeptidase N (Plasmodium falciparum FcB1/Columbia, UniProt O96935)
- Sequence (O96935 whole entry): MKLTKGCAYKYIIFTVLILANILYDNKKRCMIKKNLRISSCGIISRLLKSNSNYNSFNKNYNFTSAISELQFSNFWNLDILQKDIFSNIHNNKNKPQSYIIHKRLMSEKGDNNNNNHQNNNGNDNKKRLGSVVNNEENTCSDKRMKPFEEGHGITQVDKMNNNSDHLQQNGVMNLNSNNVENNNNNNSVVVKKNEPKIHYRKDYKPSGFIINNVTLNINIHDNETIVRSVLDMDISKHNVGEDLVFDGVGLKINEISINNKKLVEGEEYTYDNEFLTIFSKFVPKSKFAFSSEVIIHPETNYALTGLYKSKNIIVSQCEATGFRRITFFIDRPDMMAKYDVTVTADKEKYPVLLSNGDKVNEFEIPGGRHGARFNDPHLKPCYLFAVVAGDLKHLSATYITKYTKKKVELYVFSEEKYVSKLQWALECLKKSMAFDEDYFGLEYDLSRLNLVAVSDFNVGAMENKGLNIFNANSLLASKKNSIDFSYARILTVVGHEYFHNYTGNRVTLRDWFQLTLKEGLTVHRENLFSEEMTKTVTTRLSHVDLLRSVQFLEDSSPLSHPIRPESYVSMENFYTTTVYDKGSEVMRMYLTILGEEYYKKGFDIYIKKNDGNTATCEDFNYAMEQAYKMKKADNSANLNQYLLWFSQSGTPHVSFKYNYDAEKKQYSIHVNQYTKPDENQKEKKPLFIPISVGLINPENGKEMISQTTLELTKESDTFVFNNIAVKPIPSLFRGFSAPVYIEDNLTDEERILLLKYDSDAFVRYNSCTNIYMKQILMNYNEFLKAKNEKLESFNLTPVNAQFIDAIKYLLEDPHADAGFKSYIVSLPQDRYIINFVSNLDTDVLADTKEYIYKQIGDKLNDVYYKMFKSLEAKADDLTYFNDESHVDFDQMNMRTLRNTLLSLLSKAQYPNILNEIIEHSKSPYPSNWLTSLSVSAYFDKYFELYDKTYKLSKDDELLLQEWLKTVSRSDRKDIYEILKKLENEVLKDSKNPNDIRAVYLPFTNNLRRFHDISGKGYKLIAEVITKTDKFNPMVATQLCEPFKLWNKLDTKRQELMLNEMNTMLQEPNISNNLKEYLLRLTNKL
- test method notes: P. falciparum M1AAP inhibitors, biochemical, fluorogenic H-Leu-NHMec substrate, 1536-well (AID 1445)
- Set-up: species or system Plasmodium falciparum 3D7, 3D7
Calls of active or inactive are those of the source.
readout type: IC50

N#Cc1c(O)nc(SCC(=O)N2c3ccccc3Sc3ccccc32)nc1-c1ccccc1 :: 11.2 µM (active)

Enquiry: Return reported IC50. Input compound: `N=C1S/C(=C\c2ccc(-c3ccccc3C(=O)O)o2)C(=O)N1c1ccc2c(c1)OCO2`
Return: 10.3 µM (active)

Enquiry: Return reported IC50. Input compound: `O=C(N/N=C/c1cc(Br)ccc1O)c1cccc(N2CCCC2=O)c1`
Return: 38.3 µM (active)

Enquiry: Return reported IC50. Input compound: `CCOP(=O)(OCC)c1nc(/C=C/c2ccccc2)oc1NCc1ccc(OC)cc1`
Return: 128 µM (active)

Enquiry: Return reported IC50. Input compound: `O=C1Nc2ccccc2/C1=C1/SC(=S)N(NC(=O)c2ccccc2)C1=O`
Return: 11.2 µM (active)
